tested on: HCT-116 cells; test: In vitro cytotoxicity survey, HCT-116; type: cell-based, human; conditions: 72 h
QUANTITY: IC50 (nM)
Express it in nM; write the number only.

Request: Tell me measured IC50 for O=C1[O][Pt]2([NH][C@@H]3CCCC[C@H]3[NH]2)[O]C1=O please.
Result: 400

----------
system: human colon tumor cell lines; assay: In vitro cytotoxicity survey, panel of human colon tumor cell lines; assay type: cell-based; settings: HT-29, all cell lines tested except HT29, 72 h
QUANTITY: IC50

Request: Supply reported IC50 belonging to this compound: O=c1[nH]cc(F)c(=O)[nH]1 [Sample 5FU, 5-fluorouracil]
Result: 7 to 10 µM
